target: KRAS-G12D (Homo sapiens, UniProt P01116, G12D); assay: SOS-catalyzed nucleotide exchange assay (Procedure A, TR-FRET), KRAS-G12D; type: biochemical; conditions: nucleotide exchange, read-out: KRAS G12D GNE IC50
Sequence (P01116 with tags, fused parts or gaps isoform P01116-2 G12D): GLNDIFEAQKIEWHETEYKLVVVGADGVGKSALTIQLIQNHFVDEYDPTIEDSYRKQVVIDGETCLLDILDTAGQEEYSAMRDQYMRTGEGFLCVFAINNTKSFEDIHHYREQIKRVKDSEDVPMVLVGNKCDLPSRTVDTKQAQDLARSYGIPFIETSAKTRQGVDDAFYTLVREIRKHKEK
Binarize IC50 at 30 nM; below is class 1, at or above is class 0.

Before answering, review these 5 worked examples.
Molecule	Assigned class
Cc1cc2[nH]ncc2c(-c2ncnc3c2sc2nc(OC[C@@]45CCCN4C[C@H](F)C5)nc(N4CCOC[C@@](C)(O)C4)c23)c1C(F)(F)F [Ex-276]	class 0
C[C@@]1(O)COCCN(c2nc(OC[C@@]34CCCN3C[C@H](F)C4)nc3sc4c(-c5c(C6CC6)c(C(F)(F)F)cc6[nH]ncc56)nccc4c23)C1 [Ex-76]	class 1
C[C@@]1(O)COCCN(c2nc(OC[C@]3(CN4CC5(CCOC5)C4)CC3(F)F)nc3sc4c(-c5c(C6(F)CC6)c(Cl)cc6[nH]ncc56)nccc4c23)C1 [Ex-245]	class 1
CCOc1c(C)cc2[nH]ncc2c1-c1nccc2c1sc1nc(OC[C@@]34CCCN3C[C@H](F)C4)nc(N3CCOC[C@@](C)(O)C3)c12 [Ex-38]	class 0
C#CC1=CCCc2cc3[nH]ncc3c(-c3nccc4c3sc3nc(OC[C@@]56CCCN5C[C@H](F)C6)nc(N5CCOC[C@@](C)(O)C5)c34)c21 [Ex-173]	class 1

IC50 strictly < 30 nM for this molecule? Cc1cc2[nH]ncc2c(-c2nccn3c2c(Cl)c2nc(OC[C@@]45CCCN4C[C@H](F)C5)nc(N4CCOC[C@@](C)(O)C4)c23)c1C(F)(F)F [Ex-299] class 0

Lab note: confirm whether the reported IC50 for this molecule is below 30 nM, equality not counting. molecule: CCc1c(F)ccc2cc3[nH]ncc3c(-c3nccc4c3sc3nc(OC[C@@]56CCCN5C[C@H](F)C6)nc(N5CCOC[C@@](C)(O)C5)c34)c12 [Ex-167] class 1

Is 30 nM strictly greater than the molecule's reported IC50? molecule: CO[C@H]1CN2CCC[C@@]2(COc2nc(N3CCOC[C@@](C)(O)C3)c3c(n2)sc2c(-c4c(C5CC5)c(Cl)cc5[nH]ncc45)nccc23)C1 [Ex-229] class 1

---

molecular target: KRAS-G12C (C51S/C80L/C118S) (Homo sapiens, UniProt P01116, C118S/C51S/C80L/G12C); assay: SOS-catalyzed nucleotide exchange assay (Procedure A, TR-FRET), KRAS-G12C; assay type: biochemical; details: nucleotide exchange, Procedure A; read-out: KRAS G12C GNE IC50
Sequence (P01116 with tags, fused parts or gaps isoform P01116-2 G12C/C51S/C80L/C118S): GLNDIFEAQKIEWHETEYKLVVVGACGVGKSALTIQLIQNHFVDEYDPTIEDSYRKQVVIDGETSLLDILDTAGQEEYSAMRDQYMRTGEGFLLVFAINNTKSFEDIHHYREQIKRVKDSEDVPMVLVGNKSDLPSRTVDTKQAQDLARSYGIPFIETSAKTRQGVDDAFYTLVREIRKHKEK
Endpoint label: pIC50
Units for pIC50: none; it is -log10 of a concentration expressed in mol/L.

# annotated cases, reported pIC50 shown
Compound	Target	pIC50
C=C(C)c1c(Cl)cc2[nH]ncc2c1-c1nccc2c1sc1nc(OC[C@@]34CCCN3C[C@H](F)C4)nc(N3CCOC[C@@](C)(O)C3)c12	KRAS-G12C (C51S/C80L/C118S) (Homo sapiens, UniProt P01116, C118S/C51S/C80L/G12C)	7.47
CN(C)C[C@@]1(COc2nc(N3CCOC[C@@](C)(O)C3)c3c(n2)sc2c(-c4c(C5CC5)c(Cl)cc5[nH]ncc45)nccc23)CC1(F)F	KRAS-G12C (C51S/C80L/C118S) (Homo sapiens, UniProt P01116, C118S/C51S/C80L/G12C)	7.01
C=C(C)c1c(C(F)(F)F)cc2[nH]ncc2c1-c1nccc2c1sc1nc(OCC34CCCN3CC(F)C4)nc(N3CCOCC(C)(O)C3)c12 (centres unmarked)	KRAS-G12C (C51S/C80L/C118S) (Homo sapiens, UniProt P01116, C118S/C51S/C80L/G12C)	7.65
CC1(O)COCCN(c2nc(OCC34CCCN3CC(F)C4)nc3sc4c(-c5c(C6CC6)c(F)cc6[nH]ncc56)nccc4c23)C1 (centres unmarked)	KRAS-G12C (C51S/C80L/C118S) (Homo sapiens, UniProt P01116, C118S/C51S/C80L/G12C)	7.75
C/C=C(\C)c1c(C)cc2[nH]ncc2c1-c1nccc2c1sc1nc(OC[C@@]34CCCN3C[C@H](F)C4)nc(N3CCOC[C@@](C)(O)C3)c12	KRAS-G12C (C51S/C80L/C118S) (Homo sapiens, UniProt P01116, C118S/C51S/C80L/G12C)	6.44

For [2H]C1([2H])CC[C@]2(COc3nc(N4CCOC[C@@](C)(O)C4)c4c(n3)sc3c(-c5c(C6CC6)c(Cl)cc6[nH]ncc56)nccc34)N1C[C@H](F)C2([2H])[2H] , write its pIC50. 7.87

Answer with the recorded pIC50 for the compound listed here: C=C(C)c1c(C)cc2[nH]ncc2c1-c1nccc2c1oc1nc(OC[C@]3(CN(C)C)CC3(F)F)nc(N3CCOC[C@@](C)(O)C3)c12 6.87

Return the recorded pIC50 value; entry: C#Cc1c(F)ccc2cc(N)nc(-c3nccc4c5c(N6CCOC[C@@](C)(O)C6)nc(OC[C@@]67CCCN6C[C@H](F)C7)nc5n(C)c34)c12 6.52
